Here, each record is paired with measured Activity data.
- target under test: Mu-type opioid receptor (Homo sapiens)
- experiment description: Agonist activity at mu opioid receptor in human SHSY5Y cells assessed as inhibition of forskolin-stimulated cAMP production at 100 nM
- Format: functional, cell-based
- Set-up: scale not given: the % may be the effect or the level left
- condition description: SH-SY5Y
Where a SMILES comes first, the peptide text is derived from it. [ ]: non-standard residue; d: D form. ξ: configuration not given here. Dmt = Cc1cc(O)cc(C)c1C[C@H](N)C(=O)O; ξGly(decyl) = CCCCCCCCCCC(N)C(=O)O; ξAoc(2) = CCCCCCC(N)C(=O)O
Respond numerically; units are % and should not be typed.

Field: example entries. Status: answers known.
[
  {
    "compound": "CCCCCCCCCCC(N)C(=O)N[C@@H](Cc1ccc(O)cc1)C(=O)N1CCC[C@H]1C(=O)N[C@@H](Cc1c[nH]c2ccccc12)C(=O)N[C@@H](Cc1ccccc1)C(N)=O (stereo not given in full) (H-[ξGly(decyl)]YPWF-NH2)",
    "parameter": "Activity",
    "assay result": 55.4
  },
  {
    "compound": "NC(=O)[C@H]1O[C@@H](NC(=O)[C@H](Cc2ccccc2)NC(=O)[C@H](Cc2c[nH]c3ccccc23)NC(=O)[C@@H]2CCCN2C(=O)[C@@H](N)Cc2ccc(O)cc2)[C@H](O)[C@@H](O)[C@@H]1O",
    "parameter": "Activity",
    "assay result": 31.5
  },
  {
    "compound": "CCCCCCC(N)C(=O)N[C@@H](Cc1ccc(O)cc1)C(=O)N1CCC[C@H]1C(=O)N[C@@H](Cc1c[nH]c2ccccc12)C(=O)N[C@@H](Cc1ccccc1)C(N)=O (stereo not given in full)",
    "parameter": "Activity",
    "assay result": 65.4
  },
  {
    "compound": "CCCCCCC(N)C(=O)N[C@@H](Cc1c(C)cc(O)cc1C)C(=O)N1CCC[C@H]1C(=O)N[C@@H](Cc1c[nH]c2ccccc12)C(=O)N[C@@H](Cc1ccccc1)C(N)=O (stereo not given in full) (H-[ξAoc(2)][Dmt]PWF-NH2)",
    "parameter": "Activity",
    "assay result": 84.3
  }
]

Now turn to the next compound.
Ask: Bench note: what Activity did CCCCCCC(NC(=O)[C@H](Cc1ccccc1)NC(=O)[C@H](Cc1c[nH]c2ccccc12)NC(=O)[C@@H]1CCCN1C(=O)[C@@H](N)Cc1ccc(O)cc1)C(N)=O (stereo not given in full) (H-YPWF[ξAoc(2)]-NH2) show?
Result: 15.9

---

# Ki measurements, system: Mu-type opioid receptor (Rattus norvegicus, UniProt P33535)
# Sequence (P33535 whole entry): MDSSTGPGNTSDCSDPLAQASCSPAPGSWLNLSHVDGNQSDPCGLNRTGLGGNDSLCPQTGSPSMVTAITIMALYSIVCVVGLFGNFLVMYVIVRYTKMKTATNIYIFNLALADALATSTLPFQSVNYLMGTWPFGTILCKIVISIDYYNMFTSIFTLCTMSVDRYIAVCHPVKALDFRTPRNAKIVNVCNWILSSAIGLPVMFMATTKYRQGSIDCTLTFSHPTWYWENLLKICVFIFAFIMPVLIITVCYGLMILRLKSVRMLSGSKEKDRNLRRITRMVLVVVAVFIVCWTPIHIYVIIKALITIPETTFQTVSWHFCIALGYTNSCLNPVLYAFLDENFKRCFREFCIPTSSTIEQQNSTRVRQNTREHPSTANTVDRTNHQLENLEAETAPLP
Where a SMILES comes first, the peptide text is derived from it. [ ]: non-standard residue; d: D form. ξ: configuration not given here. ξGly(decyl) = CCCCCCCCCCC(N)C(=O)O
Respond numerically; units are nM and should not be typed.

Field: example entries. Status: answers known.
[
  {
    "compound": "Cc1cc(O)cc(C)c1C[C@H](N)C(=O)N1CCC[C@H]1C(=O)N[C@@H](Cc1c[nH]c2ccccc12)C(=O)N[C@@H](Cc1ccccc1)C(N)=O (stereo in doubt; 13)",
    "assay result": 0.067
  },
  {
    "compound": "NC(=O)[C@H](Cc1ccccc1)NC(=O)[C@H](Cc1c[nH]c2ccccc12)NC(=O)[C@@H]1CCCN1C(=O)[C@H](Cc1ccc(O)cc1)NC(=O)CCC(=O)N[C@@H]1O[C@H](CO)[C@@H](O)[C@H](O)[C@H]1O",
    "assay result": 115
  },
  {
    "compound": "CCCCCCC(N)C(=O)N[C@@H](Cc1ccc(O)cc1)C(=O)N1CCC[C@H]1C(=O)N[C@@H](Cc1c[nH]c2ccccc12)C(=O)N[C@@H](Cc1ccccc1)C(N)=O (some centres undefined)",
    "assay result": 2.86
  }
]

Now turn to the next compound.
Ask: Mu-type opioid receptor (Rattus norvegicus, UniProt P33535) / Ki / CCCCCCCCCCC(N)C(=O)N[C@@H](Cc1ccc(O)cc1)C(=O)N1CCC[C@H]1C(=O)N[C@@H](Cc1c[nH]c2ccccc12)C(=O)N[C@@H](Cc1ccccc1)C(N)=O (some centres undefined) (H-[ξGly(decyl)]YPWF-NH2) : value?
Result: 14.8

---

Here, each record is paired with measured Ki data.
- target under test: Mu-type opioid receptor (Homo sapiens, UniProt P35372)
- Sequence (P35372 whole entry): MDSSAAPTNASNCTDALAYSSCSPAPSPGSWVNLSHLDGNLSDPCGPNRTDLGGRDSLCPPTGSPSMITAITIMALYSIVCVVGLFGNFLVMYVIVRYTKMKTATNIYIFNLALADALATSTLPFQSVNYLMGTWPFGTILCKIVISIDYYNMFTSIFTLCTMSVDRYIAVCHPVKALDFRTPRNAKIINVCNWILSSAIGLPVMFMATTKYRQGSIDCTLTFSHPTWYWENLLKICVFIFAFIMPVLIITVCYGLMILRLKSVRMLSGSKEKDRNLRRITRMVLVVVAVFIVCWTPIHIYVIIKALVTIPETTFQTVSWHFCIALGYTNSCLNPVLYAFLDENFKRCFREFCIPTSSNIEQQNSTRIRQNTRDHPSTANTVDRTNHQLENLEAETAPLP
- experiment description: Displacement of [3H]DAMGO from mu opioid receptor in human SHSY5Y cells
Where a SMILES comes first, the peptide text is derived from it. [ ]: non-standard residue; d: D form. ξ: configuration not given here. Dmt = Cc1cc(O)cc(C)c1C[C@H](N)C(=O)O; ξAoc(2) = CCCCCCC(N)C(=O)O
Number first, unit second.

[
  {
    "molecule": "CCCCCC[C@@H](N)C(=O)N[C@@H](Cc1ccc(O)cc1)C(=O)N1CCC[C@H]1C(=O)N[C@@H](Cc1c[nH]c2ccccc12)C(=O)N[C@@H](Cc1ccccc1)C(N)=O",
    "Ki": "2.92 nM"
  },
  {
    "molecule": "CCCCCC[C@H](N)C(=O)N[C@@H](Cc1ccc(O)cc1)C(=O)N1CCC[C@H]1C(=O)N[C@@H](Cc1c[nH]c2ccccc12)C(=O)N[C@@H](Cc1ccccc1)C(N)=O",
    "Ki": "3.02 nM"
  },
  {
    "molecule": "CCCCCCC(N)C(=O)N[C@@H](Cc1c(C)cc(O)cc1C)C(=O)N1CCC[C@H]1C(=O)N[C@@H](Cc1c[nH]c2ccccc12)C(=O)N[C@@H](Cc1ccccc1)C(N)=O (stereo not given in full) (H-[ξAoc(2)][Dmt]PWF-NH2)",
    "Ki": "0.081 nM"
  },
  {
    "molecule": "CCCCCCC(N)C(=O)N[C@@H](Cc1ccc(O)cc1)C(=O)N1CCC[C@H]1C(=O)N[C@@H](Cc1c[nH]c2ccccc12)C(=O)N[C@@H](Cc1ccccc1)C(N)=O (stereo not given in full)",
    "Ki": "2.15 nM"
  }
]

Now turn to the next molecule.
Ask: Bench note: what Ki did NC(=O)[C@H]1O[C@@H](NC(=O)[C@H](Cc2ccccc2)NC(=O)[C@H](Cc2c[nH]c3ccccc23)NC(=O)[C@@H]2CCCN2C(=O)[C@@H](N)Cc2ccc(O)cc2)[C@H](O)[C@@H](O)[C@@H]1O show?
Result: 151 nM

---

- experiment description: Metabolic stability assessed as half life in human Caco-2 cell homogenate
- Format: ADME, Colon
- condition description: Caco-2 cell homogenate
Where a SMILES comes first, the peptide text is derived from it. [ ]: non-standard residue; d: D form. ξ: configuration not given here. ξAoc(2) = CCCCCCC(N)C(=O)O
parameter: half-life (min)
Respond numerically; units are min and should not be typed.

[
  {
    "molecule": "CCCCCC[C@@H](N)C(=O)N[C@@H](Cc1ccc(O)cc1)C(=O)N1CCC[C@H]1C(=O)N[C@@H](Cc1c[nH]c2ccccc12)C(=O)N[C@@H](Cc1ccccc1)C(N)=O",
    "assay result": 23.8
  },
  {
    "molecule": "CCCCCCC(NC(=O)[C@H](Cc1ccccc1)NC(=O)[C@H](Cc1c[nH]c2ccccc12)NC(=O)[C@@H]1CCCN1C(=O)[C@@H](N)Cc1ccc(O)cc1)C(N)=O (stereo partly drawn) (H-YPWF[ξAoc(2)]-NH2)",
    "assay result": 3.5
  }
]

Now turn to the next molecule.
Ask: Bench note: what half-life did NC(=O)[C@H]1O[C@@H](NC(=O)[C@H](Cc2ccccc2)NC(=O)[C@H](Cc2c[nH]c3ccccc23)NC(=O)[C@@H]2CCCN2C(=O)[C@@H](N)Cc2ccc(O)cc2)[C@H](O)[C@@H](O)[C@@H]1O show?
Result: 4.3

---

- experiment description: Apparent permeability from apical to basolateral side of the human Caco-2 membrane
- Type: ADME, cell-based
Where a SMILES comes first, the peptide text is derived from it. [ ]: non-standard residue; d: D form. The star is where a group is joined. ξ: configuration not given here. X1 = NC(=O)[C@H]1O[C@@H](N*)[C@H](O)[C@@H](O)[C@@H]1O; ξGly(decyl) = CCCCCCCCCCC(N)C(=O)O; ξAoc(2) = CCCCCCC(N)C(=O)O
Is Papp A→B at least 0.5 ×10⁻⁶ cm/s? Then true. If not, false.

[
  {
    "molecule": "CCCCCCC(N)C(=O)N[C@@H](Cc1ccc(O)cc1)C(=O)N1CCC[C@H]1C(=O)N[C@@H](Cc1c[nH]c2ccccc12)C(=O)N[C@@H](Cc1ccccc1)C(N)=O (stereo partly specified)",
    "assigned category": "true"
  }
]

Ask: Please tell me: is the molecule NC(=O)[C@H](Cc1ccccc1)NC(=O)[C@H](Cc1c[nH]c2ccccc12)NC(=O)[C@@H]1CCCN1C(=O)[C@H](Cc1ccc(O)cc1)NC(=O)CCC(=O)N[C@@H]1O[C@H](CO)[C@@H](O)[C@H](O)[C@H]1O at or over 0.5 ×10⁻⁶ cm/s in terms of Papp A→B?
Result: true

Ask: Please tell me: is the molecule CCCCCCC(N)C(=O)N[C@@H](Cc1ccc(O)cc1)C(=O)N1CCC[C@H]1C(=O)N[C@@H](Cc1c[nH]c2ccccc12)C(=O)N[C@@H](Cc1ccccc1)C(=O)N[C@@H]1O[C@H](C(N)=O)[C@@H](O)[C@H](O)[C@H]1O (stereo partly specified) (H-[ξAoc(2)]YPWF-X1) at or over 0.5 ×10⁻⁶ cm/s in terms of Papp A→B?
Result: true

Ask: Please tell me: is the molecule CCCCCCCCCCC(NC(=O)[C@H](Cc1ccccc1)NC(=O)[C@H](Cc1c[nH]c2ccccc12)NC(=O)[C@@H]1CCCN1C(=O)[C@@H](N)Cc1ccc(O)cc1)C(N)=O (stereo partly specified) (H-YPWF[ξGly(decyl)]-NH2) at or over 0.5 ×10⁻⁶ cm/s in terms of Papp A→B?
Result: false

Ask: Please tell me: is the molecule NC(=O)[C@H](Cc1ccccc1)NC(=O)[C@H](Cc1c[nH]c2ccccc12)NC(=O)[C@@H]1CCCN1C(=O)[C@@H](N)Cc1ccc(O)cc1 [ENDOMORPHIN-1] at or over 0.5 ×10⁻⁶ cm/s in terms of Papp A→B?
Result: false

Ask: Please tell me: is the molecule CCCCCCC(NC(=O)[C@H](Cc1ccccc1)NC(=O)[C@H](Cc1c[nH]c2ccccc12)NC(=O)[C@@H]1CCCN1C(=O)[C@@H](N)Cc1ccc(O)cc1)C(N)=O (stereo partly specified) (H-YPWF[ξAoc(2)]-NH2) at or over 0.5 ×10⁻⁶ cm/s in terms of Papp A→B?
Result: true
